Give measured First screening IR (inhibition rate) for each item. Keep answers brief.
# test-target: human recombinant Yes [a.a. 2–543 (end)] (Homo sapiens)
# Construct: human recombinant Yes [a.a; 2–543 (end)]; purchased BPS Bioscience 40488
# Sequence (P07947 2-543): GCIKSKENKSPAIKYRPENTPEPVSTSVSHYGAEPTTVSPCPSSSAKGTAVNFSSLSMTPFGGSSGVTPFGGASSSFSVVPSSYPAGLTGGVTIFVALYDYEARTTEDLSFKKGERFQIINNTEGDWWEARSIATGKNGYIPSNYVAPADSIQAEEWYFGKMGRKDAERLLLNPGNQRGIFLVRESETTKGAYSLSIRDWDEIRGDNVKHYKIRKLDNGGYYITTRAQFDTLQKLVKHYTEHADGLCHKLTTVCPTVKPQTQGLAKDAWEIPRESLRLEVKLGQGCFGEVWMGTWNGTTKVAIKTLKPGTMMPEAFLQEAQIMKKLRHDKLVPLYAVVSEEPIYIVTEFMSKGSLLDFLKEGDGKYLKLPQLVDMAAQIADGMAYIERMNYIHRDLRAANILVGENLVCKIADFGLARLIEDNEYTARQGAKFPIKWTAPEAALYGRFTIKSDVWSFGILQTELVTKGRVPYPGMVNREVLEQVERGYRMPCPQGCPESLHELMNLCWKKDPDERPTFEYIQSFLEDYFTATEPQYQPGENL
# method-summary: ADP-Glo kinase assay, inhibition rates of Yes phosphorylation activity (first and second screening)
# Assay type: biochemical
# stated-conditions: first screening; mean of n = 4 wells; 10 μmol L−1 compound
# Procedure: All inhibitory assays of the phosphorylation activity of Yes were performed in accordance with the Promega Technical Manual for the ADP-Glo™ Kinase Assay (Fitchburg, WI, USA. Catalog number: V9102). The human recombinant Yes [a.a. […] The screening was conducted in three steps consisting of the first screening, the second screening, and the IC50 determination, as can be illustrated in Fig. 1b. First, we determined the inhibition rates of the 1,991 compounds. […]
One number for each entry, in %.

List First screening IR (inhibition rate) for every entry below, keeping the order given.
1. CC1(C)CN=C(N2CCN(C(=O)c3ccc(C(N)=O)cc3)CC2)S1
2. CC(Sc1nc2ncccn2n1)C(=O)Nc1ccc(Cl)cc1Cl (stereo not shown)
3. CN(CC(=O)N1CCN(CC(=O)NC(C)(C)C)CC1)c1ncnc2cc(-c3ccc(F)cc3)sc12
4. O=C(NCCCn1ccnc1)C1CCN(C(=O)c2ccc(F)cc2)CC1
5. COc1cc(/C=C/C(=O)c2ccc3c(c2)NC(=O)CO3)ccc1O
6. O=C1CC(C(=O)Nc2cc(CC3CCCCC3)[nH]n2)c2ccc(F)cc2N1 (stereo not shown)
7. Cc1cc(C(=O)CSc2nnc(-c3ccc4c(c3)OCO4)n2-c2ccccc2)c(C)n1C

(A)
[3, 5, 6, 41, 1, 22, 6]

Taken from paper PMC5607274.
